- study_target: catalytic domain of human VEGFR3 (Homo sapiens, UniProt P35916, H890Q)
- Sequence (P35916 with tags, fused parts or gaps isoform P35916-1 H890Q): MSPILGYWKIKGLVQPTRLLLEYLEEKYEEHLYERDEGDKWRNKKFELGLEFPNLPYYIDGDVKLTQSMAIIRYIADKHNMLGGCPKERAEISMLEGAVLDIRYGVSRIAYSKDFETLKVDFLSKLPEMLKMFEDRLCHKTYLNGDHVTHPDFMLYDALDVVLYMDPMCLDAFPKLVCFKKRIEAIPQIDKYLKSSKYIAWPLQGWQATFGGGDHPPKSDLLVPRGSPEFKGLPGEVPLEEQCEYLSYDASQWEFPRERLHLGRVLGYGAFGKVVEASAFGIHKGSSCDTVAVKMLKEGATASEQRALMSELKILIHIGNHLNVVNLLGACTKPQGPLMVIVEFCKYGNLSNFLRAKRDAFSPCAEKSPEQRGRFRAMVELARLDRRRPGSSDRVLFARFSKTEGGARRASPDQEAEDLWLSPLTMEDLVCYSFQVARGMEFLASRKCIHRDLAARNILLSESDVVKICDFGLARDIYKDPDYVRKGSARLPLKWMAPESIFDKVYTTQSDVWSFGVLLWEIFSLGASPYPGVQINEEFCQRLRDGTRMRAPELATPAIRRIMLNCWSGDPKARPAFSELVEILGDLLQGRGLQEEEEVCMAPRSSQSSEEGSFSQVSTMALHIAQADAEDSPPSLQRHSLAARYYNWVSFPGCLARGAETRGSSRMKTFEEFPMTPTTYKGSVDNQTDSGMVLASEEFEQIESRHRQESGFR
- protocol_summary: VEGFR-3 Homogenous Time-Resolved Fluorescence Assay (VEGFR-3-HTRF)
- test_context: read-out: VEGFR3 PIC50 VEGFR-3-HTRF assay
pIC50: −log10 of the molar value.
experimental_endpoint: pIC50

>>> print(df.to_string())
                                   compound                              study_target  experimental_endpoint      reported
0  CC(=O)NCCNc1ncc2c(-c3ccc(NC(=O)Nc4cc(C(F)(F)F)ccc4F)cc3)nn(C)c2n1 [Example 98]  catalytic domain of human VEGFR3 (Homo sapiens, UniProt P35916, H890Q)                  pIC50        < 5.00
1  Cn1nc(-c2ccc(NC(=O)Nc3cccc(C(F)(F)F)c3)cc2)c2cnc(NCCN3CCOCC3)nc21 [Example 42]  catalytic domain of human VEGFR3 (Homo sapiens, UniProt P35916, H890Q)                  pIC50  5.00 to 6.00
2  Cn1nc(-c2ccc(NC(=O)Nc3cc(C(F)(F)F)ccc3F)cc2)c2cnc(NCCCCNS(C)(=O)=O)nc21 [Example 97]  catalytic domain of human VEGFR3 (Homo sapiens, UniProt P35916, H890Q)                  pIC50  5.00 to 6.00
3  Cn1nc(-c2ccc(NC(=O)Nc3cc(C(F)(F)F)ccc3F)cc2)c2cnc(NCCCn3ccnc3)nc21 [Example 100]  catalytic domain of human VEGFR3 (Homo sapiens, UniProt P35916, H890Q)                  pIC50  5.00 to 6.00
4  Cn1nc(-c2ccc(NS(=O)(=O)c3cccc(Cl)c3Cl)cc2)c2cnc(NCCCCCO)nc21 [Example 114]  catalytic domain of human VEGFR3 (Homo sapiens, UniProt P35916, H890Q)                  pIC50  5.00 to 6.00
5  Cn1nc(-c2ccc(NC(=O)Nc3cc(C(F)(F)F)ccc3F)cc2)c2cnc(NCCc3cccnc3)nc21 [Example 141]  catalytic domain of human VEGFR3 (Homo sapiens, UniProt P35916, H890Q)                  pIC50        < 5.00
6  Cn1nc(-c2ccc(NC(=O)Nc3cc(C(F)(F)F)ccc3F)cc2)c2cnc(NCCCCN3CCCC3)nc21 [Example 91]  catalytic domain of human VEGFR3 (Homo sapiens, UniProt P35916, H890Q)                  pIC50  5.00 to 6.00

====

Let's look at some molecules and their measured IC50.
- study_target: catalytic domain of human VEGFR3 (Homo sapiens, UniProt P35916, H890Q)
- protocol_summary: VEGFR-3 Homogenous Time-Resolved Fluorescence Assay (VEGFR-3-HTRF)
- test_context: read-out: VEGFR3 PIC50 VEGFR-3-HTRF assay
experimental_endpoint: IC50

In [3]: df
Out[3]:
                                   molecule                              study_target    reported
0  Cn1nc(-c2ccc(NS(=O)(=O)c3cccc(Cl)c3Cl)cc2)c2cnc(NCCCN)nc21 [Example 119]  catalytic domain of human VEGFR3 (Homo sapiens, UniProt P35916, H890Q)     > 10 µM
1  Cn1nc(-c2ccc(NC(=O)Nc3cc(C(F)(F)F)ccc3F)cc2)c2cnc(NCCc3c[nH]cn3)nc21 [Example 145]  catalytic domain of human VEGFR3 (Homo sapiens, UniProt P35916, H890Q)  1 to 10 µM
2  Cn1nc(-c2ccc(NC(=O)Nc3ccc4ccccc4c3)cc2)c2cnc(NCCN3CCOCC3)nc21 [Example 39]  catalytic domain of human VEGFR3 (Homo sapiens, UniProt P35916, H890Q)  1 to 10 µM
3  Cn1nc(-c2ccc(NS(=O)(=O)c3cccc(Cl)c3Cl)cc2)c2cnc(NCCCCNC(=N)N)nc21 [Example 121]  catalytic domain of human VEGFR3 (Homo sapiens, UniProt P35916, H890Q)     > 10 µM
4  Cn1nc(-c2ccc(NS(=O)(=O)c3cccc(Cl)c3Cl)cc2)c2cnc(NCCCCNS(C)(=O)=O)nc21 [Example 122]  catalytic domain of human VEGFR3 (Homo sapiens, UniProt P35916, H890Q)  1 to 10 µM
5  Cn1nc(-c2ccc(NC(=O)Nc3cc(C(F)(F)F)ccc3F)cc2)c2cnc(NCCCNS(C)(=O)=O)nc21 [Example 96]  catalytic domain of human VEGFR3 (Homo sapiens, UniProt P35916, H890Q)  1 to 10 µM
6  Cn1nc(-c2ccc(NC(=O)Nc3cc(C(F)(F)F)ccc3F)cc2)c2cnc(NCc3ccncc3)nc21 [Example 143]  catalytic domain of human VEGFR3 (Homo sapiens, UniProt P35916, H890Q)     > 10 µM
